molecular target: CREB3L1 (Homo sapiens); construct: made in house; assay: Direct-binding FRET assay; settings: 37°C; C-terminal fluorescein design as donor, TAMRA target titrated; read-out: Kd
Where no end group is shown, it is not given here.
READOUT_LABEL: Kd

Incoming: Recall and state the measured Kd for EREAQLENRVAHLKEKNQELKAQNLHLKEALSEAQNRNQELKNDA [XBP1-d1] .
Outgoing: > 1 µM

* * *

molecular target: ATF6 (Homo sapiens); assay: Direct-binding FRET assay; design: made in house; settings: 37°C; C-terminal fluorescein design as donor, TAMRA target titrated
Sequence (P18850 306-369 limits assumed): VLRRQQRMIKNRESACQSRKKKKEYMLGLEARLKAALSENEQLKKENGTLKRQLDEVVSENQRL
Where no end group is shown, it is not given here.
READOUT_LABEL: Kd

Incoming: Recall the reported Kd of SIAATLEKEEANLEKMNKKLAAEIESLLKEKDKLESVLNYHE [JUN-d1] on ATF6 (Homo sapiens) and write it down.
Outgoing: > 1000 nM

* * *

target: BATF (Homo sapiens, UniProt Q16520); construct: made in house; assay: Direct-binding FRET assay; details: 4°C; N-terminal rhodamine design; mean or single; read-out: Kd
pKd: −log10 of the molar value. Where no end group is shown, it is not given here.
READOUT_LABEL: pKd

Incoming: Recall and state the measured pKd for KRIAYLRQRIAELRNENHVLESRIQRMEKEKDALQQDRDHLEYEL [ATF5-d1] .
Outgoing: 6.87

Incoming: Recall and state the measured pKd for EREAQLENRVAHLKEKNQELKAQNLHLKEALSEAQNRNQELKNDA [XBP1-d1] .
Outgoing: < 6.00

Turning now to a further record.
Incoming: Recall and state the measured pKd for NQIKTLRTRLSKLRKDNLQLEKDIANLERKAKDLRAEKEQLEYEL [ATF4-d1] .
Outgoing: < 5.30

* * *

target: BACH2 (Homo sapiens); experiment: Direct-binding FRET assay; design: made in house; settings: Kd, 37°C; C-terminal rhodamine design; mean or single
Sequence (Q9BYV9 646-709 limits assumed): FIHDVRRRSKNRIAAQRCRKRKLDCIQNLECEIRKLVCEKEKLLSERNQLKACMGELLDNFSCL
pKd: −log10 of the molar value. Where no end group is shown, it is not given here.
READOUT_LABEL: pKd

Incoming: Recall and state the measured pKd for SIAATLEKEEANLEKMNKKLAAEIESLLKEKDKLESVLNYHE [JUN-d1] .
Outgoing: < 6.00

* * *

target: BACH1 (Homo sapiens, UniProt O14867); assay: Direct-binding FRET assay; set-up: made in house; settings: 37°C; N-terminal rhodamine design; mean or single
Sequence (O14867 557-620 limits assumed): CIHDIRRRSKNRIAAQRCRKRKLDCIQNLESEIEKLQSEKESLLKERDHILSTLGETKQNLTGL
Where no end group is shown, it is not given here.
READOUT_LABEL: Kd

Incoming: Recall and state the measured Kd for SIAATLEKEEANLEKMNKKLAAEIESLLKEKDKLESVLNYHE [JUN-d1] .
Outgoing: > 1000 nM

* * *

biological target: JUNB (Homo sapiens); construct: made in house; assay: Direct-binding FRET assay; conditions: 23°C; N-terminal rhodamine design; mean or single; read-out: Kd
Sequence (P17275 268-331 limits assumed): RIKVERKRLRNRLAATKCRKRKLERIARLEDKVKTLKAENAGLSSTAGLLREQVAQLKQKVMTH
pKd: −log10 of the molar value. Where no end group is shown, it is not given here.
Hi there, I'd appreciate the recorded pKd for every entry that follows.

Below are worked cases with known answers.
Incoming: Recall the reported pKd of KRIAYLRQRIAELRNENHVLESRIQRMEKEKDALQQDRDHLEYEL [ATF5-d1] on JUNB (Homo sapiens) and write it down.
Outgoing: < 6.00

Incoming: Recall the reported pKd of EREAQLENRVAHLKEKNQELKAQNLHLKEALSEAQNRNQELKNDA [XBP1-d1] on JUNB (Homo sapiens) and write it down.
Outgoing: < 6.00

Turning now to a further record.
Incoming: Recall the reported pKd of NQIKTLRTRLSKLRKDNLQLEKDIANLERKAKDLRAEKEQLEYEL [ATF4-d1] on JUNB (Homo sapiens) and write it down.
Outgoing: < 6.00

* * *

target: MAFG (Homo sapiens); experiment: Direct-binding FRET assay; design: made in house; conditions: 23°C; C-terminal rhodamine design; mean or single; read-out: Kd
Sequence (O15525 51-114 limits assumed): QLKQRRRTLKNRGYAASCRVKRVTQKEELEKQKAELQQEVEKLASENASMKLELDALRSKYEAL
Where no end group is shown, it is not given here.
READOUT_LABEL: Kd

Incoming: Recall the reported Kd of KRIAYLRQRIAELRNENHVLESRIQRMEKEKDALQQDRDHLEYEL [ATF5-d1] on MAFG (Homo sapiens) and write it down.
Outgoing: > 1000 nM

Others:
Incoming: Recall the reported Kd of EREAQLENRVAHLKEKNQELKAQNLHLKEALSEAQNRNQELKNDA [XBP1-d1] on MAFG (Homo sapiens) and write it down.
Outgoing: > 1000 nM

* * *

Molecular target: NFE2L3 (Homo sapiens, UniProt Q9Y4A8)
Construct: made in house
Sequence (Q9Y4A8 578-641 limits assumed): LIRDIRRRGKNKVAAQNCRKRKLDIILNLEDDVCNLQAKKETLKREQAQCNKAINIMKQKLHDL
Test: Direct-binding FRET assay
Conditions: 37°C; C-terminal rhodamine design; mean or single; read-out: Kd
Where no end group is shown, it is not given here.
READOUT_LABEL: Kd (nM)
Numbers only, in nM.

Incoming: Recall and state the measured Kd for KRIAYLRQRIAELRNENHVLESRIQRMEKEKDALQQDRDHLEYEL [ATF5-d1] .
Outgoing: 911

* * *

Hi there, I'd appreciate the recorded Kd for every entry that follows.
biological target: CREB3L1 (Homo sapiens, UniProt Q96BA8); construct: made in house; experiment: Direct-binding FRET assay; conditions: 37°C; N-terminal rhodamine design; mean or single; read-out: Kd
Sequence (Q96BA8 290-353 limits assumed): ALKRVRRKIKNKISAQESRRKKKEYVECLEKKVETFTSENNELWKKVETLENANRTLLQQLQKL
Where no end group is shown, it is not given here.

Incoming: Recall and state the measured Kd for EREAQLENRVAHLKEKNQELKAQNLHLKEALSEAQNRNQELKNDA [XBP1-d1] .
Outgoing: > 1000 nM

Incoming: Recall and state the measured Kd for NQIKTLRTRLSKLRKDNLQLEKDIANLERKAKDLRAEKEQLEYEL [ATF4-d1] .
Outgoing: > 1000 nM

Turning now to a further record.
Incoming: Recall and state the measured Kd for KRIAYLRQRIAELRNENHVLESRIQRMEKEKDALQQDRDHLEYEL [ATF5-d1] .
Outgoing: > 1000 nM

* * *

target: ATF6B (Homo sapiens); experiment: Direct-binding FRET assay; parameters: made in house; conditions: Kd, 4°C; N-terminal rhodamine design; mean or single
Sequence (Q99941 325-388 limits assumed): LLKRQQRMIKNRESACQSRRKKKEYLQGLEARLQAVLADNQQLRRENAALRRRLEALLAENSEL
Where no end group is shown, it is not given here.
READOUT_LABEL: Kd

Incoming: Recall and state the measured Kd for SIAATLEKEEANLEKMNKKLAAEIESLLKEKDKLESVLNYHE [JUN-d1] .
Outgoing: > 1 µM

* * *

molecular target: ATF5 (Homo sapiens); construct: made in house; experiment: Direct-binding FRET assay; conditions: 37°C; C-terminal fluorescein design as donor, TAMRA target titrated; read-out: Kd
Sequence (Q9Y2D1 208-271 limits assumed): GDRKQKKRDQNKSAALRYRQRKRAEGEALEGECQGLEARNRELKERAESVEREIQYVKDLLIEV
Where no end group is shown, it is not given here.
READOUT_LABEL: Kd

Incoming: Recall and state the measured Kd for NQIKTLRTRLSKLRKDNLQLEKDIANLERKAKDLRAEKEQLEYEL [ATF4-d1] .
Outgoing: > 1000 nM

* * *

target: CREBZF (Homo sapiens); construct: made in house; experiment: Direct-binding FRET assay; conditions: 4°C; C-terminal fluorescein design as donor, TAMRA target titrated
Sequence (Q9NS37 204-267 limits assumed): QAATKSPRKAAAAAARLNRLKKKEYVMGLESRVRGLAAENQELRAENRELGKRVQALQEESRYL
pKd: −log10 of the molar value. Where no end group is shown, it is not given here.
READOUT_LABEL: pKd

Incoming: Recall the reported pKd of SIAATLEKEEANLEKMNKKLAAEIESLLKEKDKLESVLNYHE [JUN-d1] on CREBZF (Homo sapiens) and write it down.
Outgoing: < 6.00

* * *

target: MAFG (Homo sapiens); assay: Direct-binding FRET assay; design: made in house; settings: 4°C; C-terminal rhodamine design; repeat 1; read-out: Kd
Where no end group is shown, it is not given here.
READOUT_LABEL: Kd

Incoming: Recall and state the measured Kd for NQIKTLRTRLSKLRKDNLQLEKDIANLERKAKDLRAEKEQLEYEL [ATF4-d1] .
Outgoing: > 5 µM

* * *

Hi there, I'd appreciate the recorded Kd for every entry that follows.
molecular target: HLF (Homo sapiens); construct: made in house; assay: Direct-binding FRET assay; conditions: 23°C; C-terminal rhodamine design; mean or single; read-out: Kd
Sequence (Q16534 225-288 limits assumed): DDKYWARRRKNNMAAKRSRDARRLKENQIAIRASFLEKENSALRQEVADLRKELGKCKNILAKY
Where no end group is shown, it is not given here.

Below are worked cases with known answers.
Incoming: Recall and state the measured Kd for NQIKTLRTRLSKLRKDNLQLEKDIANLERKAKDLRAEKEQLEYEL [ATF4-d1] .
Outgoing: > 1000 nM

Incoming: Recall and state the measured Kd for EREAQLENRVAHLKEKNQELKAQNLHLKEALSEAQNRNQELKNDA [XBP1-d1] .
Outgoing: > 1000 nM

Turning now to a further record.
Incoming: Recall and state the measured Kd for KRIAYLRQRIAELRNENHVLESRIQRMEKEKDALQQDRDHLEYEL [ATF5-d1] .
Outgoing: > 5000 nM

* * *

target: ATF3 (Homo sapiens); construct: made in house; assay: Direct-binding FRET assay; settings: 4°C; C-terminal rhodamine design; repeat 1; read-out: Kd
Sequence (P18847 86-149 limits assumed): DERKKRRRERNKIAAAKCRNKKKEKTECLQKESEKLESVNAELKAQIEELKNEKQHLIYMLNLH
Where no end group is shown, it is not given here.
READOUT_LABEL: Kd

Incoming: Recall and state the measured Kd for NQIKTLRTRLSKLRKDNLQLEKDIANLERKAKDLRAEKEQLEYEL [ATF4-d1] .
Outgoing: > 1 µM
